assay: recombinant barcode read abundance after kanamycin selection (control-corrected) (log10(CPM+1)); higher = more efficient recombination; sequences stand for … in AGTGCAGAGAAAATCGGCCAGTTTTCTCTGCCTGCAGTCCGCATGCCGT…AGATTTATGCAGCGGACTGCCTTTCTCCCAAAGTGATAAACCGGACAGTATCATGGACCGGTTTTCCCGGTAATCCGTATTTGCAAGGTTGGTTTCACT; site = the 11-nt target;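 further: IS621 recombinase and bridge RNA in Escherichia coli cells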
Measured Attribute: recombinant barcode read abundance (log10)
Response field accepts a number only; no unit should be typed.

Examples with their reported recombinant barcode read abundance (log10) follow.
Construct Sequence	Quantitative Readout
TCGAGTGCTTGGGTTCTAACCTGTTGCCT (site TCGAGTGCTAG)	0.0982
TTAGGTCCTTGGGTTCTAACCTGTTGCAG (site TTAGGTCCTCT)	2.5
TACTAAGCTTGGGTTCTAACCTGTTGCCT (site TACTAAGCTAT)	0.171
TCCTATTCTTGGGTTCTAACCTGTTGCGA (site TCCTATTCTTC)	0.544
GTCATGTCTTGGGTTCTAACCTGTTGCTC (site GTCATGTCTGA)	1.23
CCGTCACCTTGGGTTCTAACCTGTTGCCT (site ACGTCACCTAG)	0.264

Now, please, on to the next sequence.
Inquiry: Endpoint output: recombinant barcode read abundance (log10) of GGTTGGCCTTGGGTTCTAACCTGTTGCGG (site GGTTGCCCTCC) . Value?
Reply text: 0.0622
